All values here come from patent US20240066027A1.

# Tested on: human PAR-2 (hPAR-2) receptor expressed in HEK-293 T cells in an endogenous manner (Homo sapiens, UniProt P55085)
# Construct: human PAR-2 (hPAR-2) receptor expressed in HEK-293 T cells in an endogenous manner; endogenous in cells
# Sequence (P55085 26-397): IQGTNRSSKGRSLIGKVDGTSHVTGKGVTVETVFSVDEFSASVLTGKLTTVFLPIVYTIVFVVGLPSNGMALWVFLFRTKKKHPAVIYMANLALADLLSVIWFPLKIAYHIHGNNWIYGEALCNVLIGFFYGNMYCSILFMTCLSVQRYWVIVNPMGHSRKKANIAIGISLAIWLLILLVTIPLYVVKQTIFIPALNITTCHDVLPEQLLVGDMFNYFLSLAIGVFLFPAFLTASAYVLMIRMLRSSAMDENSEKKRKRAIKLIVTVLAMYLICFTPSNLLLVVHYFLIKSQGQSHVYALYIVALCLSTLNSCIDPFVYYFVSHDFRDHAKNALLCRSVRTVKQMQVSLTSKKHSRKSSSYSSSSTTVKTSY
# Assay overview: In vitro human PAR-2 functional antagonist activity using calcium assays (Fluo4AM, FLIPR Tetra)
# Assay context: HEK-293 T cells stimulated by an EC80 of the 2-Furoyl-LIGRLO-NH2 peptide after 10 min incubation with compound; 20 concentrations, duplicate, two independent experiments
Measurement kind: IC50

Answered cases to consult:
CC(C)(C)n1cc(-c2ccc(Cl)c(F)c2)c2ccc(C(=O)N3CCC(C(=O)O)CC3)nc21 ... 0.02 to 10 µM
CC(C)(C)n1cc(-c2ccc(Cl)c(F)c2)c2ccc(C(=O)N3CCC4(CC3)CNC(=O)C4)nc21 ... 0.02 to 10 µM
Cc1cc(N[C@H]2CCN(C(=O)c3ccc4c(-c5ccc(Cl)c(F)c5)cn(C(C)(C)C)c4n3)C2)nc(C)c1C(=O)O ... > 10 µM

Moving on to another compound below.
Query string: I am curious: what IC50 value has been reported for `Cc1cc(N(C)[C@@H]2CCN(C(=O)c3ccc4c(-c5ccc(Cl)c(F)c5)cn(C(C)(C)C)c4n3)C2)nc(C)c1C(=O)O` ?
Result string: 0.02 to 10 µM

###

Measured IC50 accompanies every entry in the list below.
# Tested on: human PAR-2 (hPAR-2) receptor expressed in HEK-293 T cells in an endogenous manner (Homo sapiens)
# Construct: human PAR-2 (hPAR-2) receptor expressed in HEK-293 T cells in an endogenous manner; endogenous in cells
# Sequence (P55085 26-397): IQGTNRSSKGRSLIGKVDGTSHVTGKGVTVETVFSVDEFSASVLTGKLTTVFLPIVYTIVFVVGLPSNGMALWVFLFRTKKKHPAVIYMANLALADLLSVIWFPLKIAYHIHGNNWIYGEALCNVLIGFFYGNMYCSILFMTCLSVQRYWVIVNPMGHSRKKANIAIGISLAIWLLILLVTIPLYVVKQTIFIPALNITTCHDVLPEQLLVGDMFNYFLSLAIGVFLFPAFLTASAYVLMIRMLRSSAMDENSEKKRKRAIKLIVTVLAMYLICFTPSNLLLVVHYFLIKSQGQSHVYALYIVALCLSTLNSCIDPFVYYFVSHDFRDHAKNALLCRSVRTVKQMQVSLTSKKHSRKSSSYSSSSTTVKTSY
# Assay overview: In vitro human PAR-2 functional antagonist activity using calcium assays (Fluo4AM, FLIPR Tetra)
# Assay context: HEK-293 T cells stimulated by an EC80 of the 2-Furoyl-LIGRLO-NH2 peptide after 10 min incubation with compound; 20 concentrations, duplicate, two independent experiments

CNC(=O)CN1CCN(C(=O)c2ccc3c(-c4ccc(Cl)c(F)c4)cn(C(C)(C)C)c3n2)C(C)(C)C1=O ... < 0.02 µM
CC(C)(C)n1cc(-c2ccc(Cl)c(F)c2)c2ccc(C(=O)N3CCC(Cn4cc(C(=O)O)cn4)CC3)nc21 ... 0.02 to 10 µM
CC(C)(C)c1cn(-c2ccc(Cl)c(F)c2)c2ccc(C(=O)N3CCNC(=O)C3(C)C)nc12 ... < 0.02 µM

Query string: I am curious: what IC50 value has been reported for `COc1ccc(-n2nc(CC(C)C)c3nc(C(=O)N4CCNC(=O)C4(C)C)ccc32)cc1` ?
Result string: > 10 µM

Query string: I am curious: what IC50 value has been reported for `Cc1cc(N2CCN(C(=O)c3ccc4c(-c5ccc(Cl)c(F)c5)cn(C[C@@H]5CCOC5)c4n3)C(C)(C)C2)nc(C)c1C(=O)O` ?
Result string: 0.02 to 10 µM

Query string: I am curious: what IC50 value has been reported for `CC(C)Cn1cc(C2=CCOCC2)c2ccc(C(=O)N3CCNC(=O)C3(C)C)nc21` ?
Result string: > 10 µM

Query string: I am curious: what IC50 value has been reported for `CC1(C)C(=O)N(CC(=O)O)CCN1C(=O)c1ccc2c(-c3ccc(Cl)c(F)c3)cn(C(C)(C)C)c2n1` ?
Result string: 0.02 to 10 µM

###

Measured IC50 accompanies every entry in the list below.
# Tested on: human PAR-2 (hPAR-2) receptor expressed in HEK-293 T cells in an endogenous manner (Homo sapiens, UniProt P55085)
# Construct: human PAR-2 (hPAR-2) receptor expressed in HEK-293 T cells in an endogenous manner; endogenous in cells
# Assay overview: In vitro human PAR-2 functional antagonist activity using calcium assays (Fluo4AM, FLIPR Tetra)
# Assay context: HEK-293 T cells stimulated by an EC80 of the 2-Furoyl-LIGRLO-NH2 peptide after 10 min incubation with compound; 20 concentrations, duplicate, two independent experiments
Where a name gives a salt, the structure may show the parent alone.

Answered cases to consult:
Cc1cccnc1Cn1cc(-c2ccc(Cl)c(F)c2)c2ccc(C(=O)N3CCN(c4cc(C)c(C(=O)O)c(C)n4)CC3(C)C)nc21 [Example 193, hydrochloride] ... < 20 nM
CC(C)Cc1nn(-c2ccc(Cl)cc2)c2ccc(C(=O)N3CCNC(=O)C3(C)C)nc12 [Example 85] ... 20 to 10000 nM

Moving on to another compound below.
Query string: I am curious: what IC50 value has been reported for CC1(C)C(=O)NCCN1C(=O)c1ccc2c(n1)c(C1CCOCC1)nn2-c1ccc(Cl)c(F)c1 [Example 72] ?
Result string: 20 to 10000 nM

###

Measured melting point accompanies every entry in the list below.

Answered cases to consult:
O=C(c1cc2c(cn1)c(-c1ccc(Cl)c(F)c1)nn2CC(F)(F)F)N1CCCOCC1 ... 84 to 88 °C
CC(C)Cn1cc(-c2ccc(F)cc2)c2ccc(C(=O)N3CCNC(=O)C3(C)C)nc21 ... 192 to 194 °C

Moving on to another compound below.
Query string: I am curious: what melting point value has been reported for `Cc1ccccc1-c1cn(CC(C)C)c2nc(C(=O)N3CCNC(=O)C3(C)C)ccc12` ?
Result string: 225 to 230 °C

###

Measured pIC50 accompanies every entry in the list below.
# Tested on: human PAR-2 (hPAR-2) receptor expressed in HEK-293 T cells in an endogenous manner (Homo sapiens, UniProt P55085)
# Construct: human PAR-2 (hPAR-2) receptor expressed in HEK-293 T cells in an endogenous manner; endogenous in cells
# Assay overview: In vitro human PAR-2 functional antagonist activity using calcium assays (Fluo4AM, FLIPR Tetra)
# Assay context: HEK-293 T cells stimulated by an EC80 of the 2-Furoyl-LIGRLO-NH2 peptide after 10 min incubation with compound; 20 concentrations, duplicate, two independent experiments
pIC50: −log10 of the molar value.

Answered cases to consult:
Cc1cc(N2CCN(C(=O)c3ccc4c(-c5ccc(Cl)c(F)c5)cn(C(C)(C)CO)c4n3)C(C)(C)C2)nc(C)c1C(=O)O ... 5.00 to 7.70
Cc1cc(C2=CCN(C(=O)c3ccc4c(-c5ccc(Cl)c(F)c5)cn(C(C)(C)C)c4n3)CC2)nc(C)c1C(=O)O ... 5.00 to 7.70
Cc1cc(N(C)C2CCN(C(=O)c3ccc4c(-c5ccc(Cl)c(F)c5)cn(C(C)(C)C)c4n3)CC2)nc(C)c1C(=O)O ... 5.00 to 7.70
Cc1cc(N2CCN(C(=O)c3ccc4c(-c5ccc(F)c(F)c5)cn(C(C)(C)C)c4n3)C(C)(C)C2)nc(C)c1C(=O)O ... > 7.70

Query string: I am curious: what pIC50 value has been reported for Cc1cc(N2CCN(C(=O)c3ccc4c(-c5ccc(Cl)c(F)c5)cn(C(C)(C)C)c4n3)CC2CO)nc(C)c1C(=O)O (stereo not shown) ?
Result string: 5.00 to 7.70

Query string: I am curious: what pIC50 value has been reported for `Cc1cccc(-c2cn(CC(C)C)c3nc(C(=O)N4CCNC(=O)C4(C)C)ccc23)c1` ?
Result string: 5.00 to 7.70

Query string: I am curious: what pIC50 value has been reported for `Cc1cc(N2CCN(C(=O)c3ccc4c(-c5ccc(Cl)c(F)c5)cn(C(C)(C)C)c4n3)[C@@H](C)C2)nc(C)c1C(=O)O` ?
Result string: 5.00 to 7.70

Query string: I am curious: what pIC50 value has been reported for `COCC(COC)n1cc(-c2ccc(Cl)c(F)c2)c2ccc(C(=O)N3CCN(c4cc(C)c(C(=O)O)c(C)n4)CC3(C)C)nc21` ?
Result string: > 7.70

Query string: I am curious: what pIC50 value has been reported for `CC(C)Cn1cc(C2CCCCC2)c2ccc(C(=O)N3CCNC(=O)C3(C)C)nc21` ?
Result string: 5.00 to 7.70

Query string: I am curious: what pIC50 value has been reported for `CC(C)(C)n1cc(-c2ccc(Cl)c(F)c2)c2ccc(C(=O)N3CCC(CC(=O)O)CC3)nc21` ?
Result string: 5.00 to 7.70
